System: Yap1 mRNA
assay.name: Antisense inhibition of human Yap1 in A-431 cells by cEt gapmers, single dose (Example 2, RTS4814)
Type: cell-based
settings: Table 18; A-431 cells, 5,000 cells per well, free uptake, 2,000 nM modified oligonucleotide, approx. 48 hours; RTS4814; normalized to RIBOGREEN; Yap1 mRNA as percent of untreated control
Strand notation (5' to 3'): a small letter for the sugar, then the base; units joined by * are phosphorothioate-linked, units joined directly phosphodiester-linked; [ ] holds rarer units or linkages, { } end groups; capitals alone tell only the bases. k = constrained ethyl (cEt); [5mC] = 5-methylcytosine; d = 2'-deoxy (DNA)
quantity.kind: YAP1 (% UTC)
Quick reminder: number only, in % UTC, skip the unit.

// 1075652 (kG*kT*kA*dT*dA*dT*dT*dA*d[5mC]*dA*dA*dT*d[5mC]*k[5mC]*k[5mC]*kA; antisense) [Compound 1075652] : YAP1 (% UTC) value = 40

###

Catalogue of HDL values
assay.name: Cynomolgus monkey tolerability, kidney and liver function markers (Example 34)
settings: cynomolgus monkeys, 35 mg/kg subcutaneously, day 44
Quick reminder: number only, in mg/dL, skip the unit.

Consider the worked cases shown below.
• 1198605 (GTAATATTGCAATCTG; modified gapmer, further chemistry not given here) [compound 1198605] = 115
• 1076453 (GTAATATTGCAATCTG; 3-10-3 cEt gapmer, further chemistry not given here) [compound 1076453] = 98
• 1198831 (CACTTTTACATTAGGA; chemically modified gapmer, further chemistry not given here) [compound 1198831] = 108
• 1198439 (AGTGTATGTCAGAAGA; sugar, 5-methylcytosine, phosphorothioate modifications, further chemistry not given here) [compound 1198439] = 82
• 1198623 (CTAAGTAAGGTTTCCC; modified gapmer, further chemistry not given here) [compound 1198623] = 87

// 958499 (ATTAGAGTATGTGGCA; 3-10-3 cEt gapmer, further chemistry not given here) [compound 958499] : HDL value = 89

// 1198440 (AAGTGTATGTCAGAAG; cEt, 2'-MOE, 5-methylcytosine, phosphorothioate modifications, further chemistry not given here) [compound 1198440] : HDL value = 104

// 1197270 (TTAAAGTGTATGTCAG; cEt gapmer with 2'-OMe nucleoside, phosphorothioate, further chemistry not given here) [compound 1197270] : HDL value = 102

// 1198728 (TATTAGAGTATGTGGC; modified gapmer, further chemistry not given here) [compound 1198728] : HDL value = 95

// 1198872 (TGTATGTCAGAAGAGT; chemically modified gapmer, further chemistry not given here) [compound 1198872] : HDL value = 114

###

Catalogue of IC50 values
Tested on: Yap1 mRNA
assay.name: Dose-dependent inhibition of human Yap1 in A-431 cells (Example 8, 10,000 cells per well, RTS4814)
Type: cell-based
settings: A-431 cells, free uptake, approximately 48 hours, RTS4814; linear regression on log/linear plot
Strand notation (5' to 3'): a small letter for the sugar, then the base; units joined by * are phosphorothioate-linked, units joined directly phosphodiester-linked; [ ] holds rarer units or linkages, { } end groups; capitals alone tell only the bases. k = constrained ethyl (cEt); [5mC] = 5-methylcytosine; d = 2'-deoxy (DNA)

Consider the worked cases shown below.
- 1075785 (k[5mC]*kA*kT*dT*dT*dT*dA*dT*dA*dG*dG*dG*d[5mC]*k[5mC]*kA*kT; antisense) [compound 1075785]: < 20 nM
- 1076298 (kG*kT*kT*dA*dT*dA*dA*dA*dG*dA*d[5mC]*d[5mC]*d[5mC]*kA*kA*kT; antisense) [compound 1076298]: 200 nM
- 1075457 (antisense kA*kG*kT*dA*dA*dT*dA*dT*dG*dT*dA*d[5mC]*dA*kT*kG*kG) [compound 1075457]: < 20 nM
- 1076464 (k[5mC]*kA*kT*dA*dT*dA*d[5mC]*dA*dA*dT*dT*d[5mC]*dT*kG*k[5mC]*k[5mC]; antisense) [compound 1076464]: < 20 nM

// 1075233 (kG*kT*kA*dA*dT*dT*dT*dA*dT*d[5mC]*dA*dG*d[5mC]*k[5mC]*kA*kT; antisense) [compound 1075233] : IC50 value = < 20 nM

// 1076516 (k[5mC]*kA*kT*dA*dA*dA*d[5mC]*dA*dT*dG*dA*dG*dT*kG*kG*kT; antisense) [compound 1076516] : IC50 value = 100 nM
